Measured values drawn from patent US20090280138A1 for this set.

target: T1, MHC class I allele A*0201 monomer (human, biotinylated, bound to streptavidin-coated plate); test: iTopia, multiparametric iScore
T1 construct: also called A2; HLA-A2
Assignment: determine reported iScore for the given binders.

Solved entries (count: 5):
[[record]]
binder = "YLNRKGIKK [5T4 9-mer peptide 188]"
reported = 0.118

[[record]]
binder = "NIRDACRDH [5T4 9-mer peptide 194]"
reported = 0

[[record]]
binder = "MHNIRDACR [5T4 9-mer peptide 193]"
reported = 0.093

[[record]]
binder = "LNSADLDCD [5T4 9-mer peptide 169]"
reported = 0

[[record]]
binder = "SFRNLTHLE [5T4 9-mer peptide 127]"
reported = 0


Required: iScore, one value per binder below.
1. LSNNSLVSL [5T4 9-mer peptide 121]
2. LELNSADLD [5T4 9-mer peptide 168]
3. KGIKKWMHN [5T4 9-mer peptide 190]

OUT:
1: 0.116; 2: 0; 3: 0
